Origin of measurements: ChEMBL document CHEMBL1961873

# TESTED ON: Protein kinase C iota type (Homo sapiens) (UniProt P41743);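 note: reported figures are mean inhibition values from the GSK PKIS screen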
# Sequence (whole entry): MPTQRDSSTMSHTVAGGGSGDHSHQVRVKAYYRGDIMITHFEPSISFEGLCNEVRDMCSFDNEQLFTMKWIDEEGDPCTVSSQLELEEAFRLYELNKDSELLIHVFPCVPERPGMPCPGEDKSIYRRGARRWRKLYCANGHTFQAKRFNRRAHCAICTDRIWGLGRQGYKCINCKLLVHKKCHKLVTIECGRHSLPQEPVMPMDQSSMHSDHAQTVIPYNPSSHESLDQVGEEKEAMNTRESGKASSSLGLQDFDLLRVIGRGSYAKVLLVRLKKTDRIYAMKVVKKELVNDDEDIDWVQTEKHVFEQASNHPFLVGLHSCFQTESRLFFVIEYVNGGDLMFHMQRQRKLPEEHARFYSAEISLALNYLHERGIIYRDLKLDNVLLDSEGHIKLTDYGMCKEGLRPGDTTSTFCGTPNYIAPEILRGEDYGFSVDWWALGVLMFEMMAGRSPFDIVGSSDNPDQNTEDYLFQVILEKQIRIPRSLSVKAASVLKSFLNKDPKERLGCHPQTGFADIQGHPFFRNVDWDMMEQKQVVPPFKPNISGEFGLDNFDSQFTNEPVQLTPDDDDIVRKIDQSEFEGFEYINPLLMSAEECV
# TEST CONTEXT: at 1 µM
MEASURED METRIC: inhibition

>  <SUBSTANCE SMILES>
Nc1nccc(-c2c(-c3ccc(F)cc3)ncn2CCCN2CCOCC2)n1

>  <RECORDED VALUE>
3.21%

$$$$
>  <SUBSTANCE SMILES>
Cc1ccc(NC(=O)CC2CC2)cc1-c1ccc(C(=O)NCC2CC2)cc1

>  <RECORDED VALUE>
-0.03%

$$$$
>  <SUBSTANCE SMILES>
Nc1ccc(C#Cc2cncnc2Nc2ccc(OCc3cccc(F)c3)c(Cl)c2)cc1

>  <RECORDED VALUE>
1.53%

$$$$
>  <SUBSTANCE SMILES>
C[C@@H](Oc1cc(-n2cnc3ccc(OC[C@@H](O)CO)cc32)sc1C(N)=O)c1ccccc1Cl

>  <RECORDED VALUE>
1.09%

$$$$
>  <SUBSTANCE SMILES>
O=C1Nc2ccccc2/C1=C/Nc1ccc2[nH]c(=O)[nH]c2c1

>  <RECORDED VALUE>
0.7%

$$$$
>  <SUBSTANCE SMILES>
COc1cccc(-n2nc(C)c3c(N/N=C(\C)c4ccncc4)ncnc32)c1

>  <RECORDED VALUE>
-0.8%

$$$$
